Target: BRD4 (Homo sapiens, UniProt O60885)
quantity name: Kd

Worked examples follow.
* CN1C(=O)C(C)(Cc2ccccn2)c2cc(=O)n(Cc3ccc(Cl)cc3)cc21 (stereo not drawn) [Compound 22b] | > 200 µM
* CN1C(=O)C(C)(CC2CC2)c2cc(=O)n(Cc3ccc(Cl)cc3)cc21 (stereo not drawn) [Compound 22f] | > 200 µM
* CN1C(=O)C(C)(CC2(C)COC2)c2cc(=O)n(Cc3ccc(Cl)cc3)cc21 (stereo not drawn) [Compound 22e] | > 2000 µM
* CN1C(=O)C(C)(C)c2cc(=O)n(Cc3cccc(C#N)c3)cc21 [Compound 17p] | 184 µM
* CN1C(=O)C(C)(CC(C)(C)C)c2cc(=O)n(Cc3ccc(Cl)cc3)cc21 (stereo not drawn) [Compound 22d] | > 2000 µM
* CN1C(=O)C(C)(C)c2cc(=O)n(Cc3ccc(S(C)(=O)=O)cc3)cc21 [Compound 17i] | 200 µM
* Cn1cc2c(cc1=O)C(C)(C)C(=O)N2 | > 2000 µM
* Cn1cc2c(cc1=O)C(C)(C)C(=O)N2CCN1CCOCC1 [Compound 14e] | > 2000 µM
* CN1C(=O)C(C)(Cc2ccccc2)c2cc(=O)n(Cc3ccc(Cl)cc3)cc21 (stereo not drawn) [Compound 22a] | > 2000 µM
* CN1C(=O)C(C)(C)c2cc(=O)n(CCc3ccccc3)cc21 [Compound 17d] | 161 µM

In: Value wanted: Kd (BRD4 (Homo sapiens, UniProt O60885)) of entry Cc1nc(CC2(C)C(=O)N(C)c3cn(Cc4ccc(Cl)cc4)c(=O)cc32)cs1 (stereo not drawn) [Compound 22c]
Out: > 200 µM

In: Return Kd measured with BRD4 (Homo sapiens, UniProt O60885) given this molecule: CN1C(=O)C(C)(C)c2cc(=O)n(Cc3ccc(Cl)cc3)cc21 [Compound 17j]
Out: 40 µM

In: Query the reported Kd for BRD4 (Homo sapiens, UniProt O60885); item: CN1C(=O)C(C)(C)c2cc(=O)n(C)cc21 [Compound 17a]
Out: > 200 µM

In: For BRD4 (Homo sapiens, UniProt O60885), provide Kd of CN1C(=O)C(C)(C)c2cc(=O)n(Cc3ccc(C(N)=O)cc3)cc21 [Compound 17h] please.
Out: > 200 µM

In: Could you share what Kd was measured for COC(=O)c1ccc(Cn2cc3c(cc2=O)C(C)(C)C(=O)N3C)cc1 [Compound 17e] , tested on BRD4 (Homo sapiens, UniProt O60885)?
Out: 141 µM

In: Recorded Kd for CN1C(=O)C(C)(C)c2cc(=O)n(Cc3ccc(Cl)c(Cl)c3)cc21 [Compound 17n] with BRD4 (Homo sapiens, UniProt O60885), please?
Out: 65 µM

In: GET /values?readout=Kd&system=BRD4 (Homo sapiens, UniProt O60885)&item= Cn1cc2c(cc1=O)C(C)(C)C(=O)N2CCO [Compound 14g]
Out: > 2000 µM

In: Provide the documented Kd with BRD4 (Homo sapiens, UniProt O60885) as the system for CN1C(=O)C(C)(C)c2cc(=O)n(Cc3ccc(C#N)cc3)cc21 [Compound 17g]
Out: 142 µM
